# RUN DESCRIPTION: Induction of nitrous oxide release in MeOH/TBS buffer at pH 7.4 at 25 mM after 0.5 hrs by gas chromatographic analysis
# Format: physicochemical
# CONDITION INFO: pH 7.4, 0.5 h, 25000 µM
QUANTITY MEASURED: Activity (%)

Reported Activity for `CC(C)N/[N+]([O-])=N/OCCS(C)(=O)=O` was 0.5

I = CONS(=O)(=O)CCO/N=[N+](\[O-])NC(C)C
II = CC(C)N[N+]([O-])=N[O-].[Na+]
III = CC(C)N/[N+]([O-])=N/OCCS(=O)(=O)NOCc1ccccc1
IV = COS(=O)(=O)CCO/N=[N+](\[O-])NC(C)C
(Q) Sort by Activity, descending. I would appreciate it if you listed the labels in the requested order.
(A) II, I, III, IV
(II: 9.4%, I: 5.9%, III: 3.8%, IV: 1.4%)
